Assay: Selectivity ratio of IC50 for integrin alphaVbeta5 receptor to IC50 for integrin alphaVbeta3 receptor
MEASURED_QUANTITY: Ratio IC50
Please give only the number in your answer, with no unit.

N=C(N)NCCC[C@@H]1NC(=O)C[C@H]2C(=O)N[C@H](CNC(=O)[C@H](CC(=O)O)NC(=O)CNC1=O)C(=O)N2Cc1ccccc1 = 20

Attention now shifts to the item below.
Item under review: CC(=O)O[C@H]1C(=O)[C@@]2(C)[C@H]([C@H](OC(=O)c3ccccc3)[C@]3(O)C[C@H](OC(=O)[C@H](OC(=O)CCC(=O)NCc4ccc(CN5C(=O)[C@H]6CC(=O)N[C@@H](CCCNC(=N)N)C(=O)NCC(=O)N[C@@H](CC(=O)O)C(=O)NC[C@H]5C(=O)N6)cc4)[C@@H](NC(=O)c4ccccc4)c4ccccc4)C(C)=C1C3(C)C)[C@]1(OC(C)=O)CO[C@@H]1C[C@@H]2O . Reported Ratio IC50? 20

Values were extracted from ChEMBL document CHEMBL2176897.
